test: Cytotoxicity against human RBE cells assessed as reduction in cell viability by MTT assay; type: toxicity, cell-based
testReadout: CC50 (µM)
State the answer as a number, implicitly in µM.

Determine from records and report CC50 for `O=C(NC(=S)Nc1ccc(Br)cn1)c1ccc(C(F)(F)F)cc1` 81.1
